Test system: B type monoamine oxidase
Test summary: Ex vivo monoamine oxidase inhibition in rat brain homogenate, phenylethylamine substrate
Parameters: unit not given here
Condition summary: rats, 5 mg/kg p.o., 24 hours after administration
Experimental: This activity has been shown ex vivo on rats to which are orally administered the compounds employed in the invention as a 0.5% suspension in methylcellulose. Then the rats are decapitated at various times (30 mn, 1 hour, 2 hours, 4 hours, 8 hours and 24 hours after the administration). […]
Would you mind labelling by Monoamine oxidase inhibition effect, B Type monoamine oxidase, 24 hours? At or over 30 is criterion met, under is criterion not met.

The examples below pair each entry with its known result.
CNCC1CN(c2ccc(OCc3ccccc3)cc2)C(=O)O1 (centres unmarked) | criterion met
CNCC1CN(c2ccc(OCC3CCCCC3)cc2)C(=O)O1 (centres unmarked) | criterion not met
NCC1CN(c2ccc(OCc3ccccc3)cc2)C(=O)O1 (centres unmarked) | criterion met
NCC1CN(c2ccc(OCc3cccc(Cl)c3)cc2)C(=O)O1 (centres unmarked) | criterion met

Attention now shifts to the item below.
Q. Please check the record CNCC1CN(c2ccc(OCc3ccc(F)cc3)cc2)C(=O)O1 (centres unmarked) and state if its Monoamine oxidase inhibition effect, B Type monoamine oxidase, 24 hours is at or above 30.
A. criterion not met
